Here, each record is paired with measured TGI data.
system: T-47D breast; assay: NCI tumour cell line growth inhibition, 48 h

{"columns": ["Molecule", "System name", "Result comparator", "TGI [µM]"],
 "data": [
  ["CCCOc1ccc2nc(NC(=O)OC)[nH]c2c1", "T-47D breast", ">", 100],
  ["Cc1cc(C)c2c(=O)cc(-c3cccc(F)c3)[nH]c2n1", "T-47D breast", ">", 100],
  ["O=S(=O)(c1cc(Cl)ccc1Cl)n1ccnc1", "T-47D breast", ">", 100],
  ["O=C1C=CC(=O)N1n1c(-c2ccccc2)n[nH]c1=O", "T-47D breast", ">", 100],
  ["CN1C(=O)N(C)C2C1NN=c1s/c(=C\\c3ccc(F)cc3)c(=O)n12 (stereo not given)", "T-47D breast", ">", 100],
  ["S=C(N/N=C\\C(=N/NC(=S)N1CCCCC1)c1ccccc1)N1CCCCC1", "T-47D breast", "=", 6.72],
  ["Cn1c2c(c3ccc(Cl)c(Cl)c31)C(C#N)C1(CCNCC1)NC2=O (stereo not given)", "T-47D breast", "=", 3.94],
  ["COc1cc(C(c2c(O)c3ccccc3oc2=O)c2c(O)c3ccccc3oc2=O)cc(Br)c1O", "T-47D breast", "=", 53.3],
  ["COC(=O)C1C(C(=O)OC)C2(OC(c3ccc(Cl)cc3)=CC2=O)C12OC(c1ccc(Cl)cc1)=CC2=O (stereo not given)", "T-47D breast", "=", 63.3],
  ["O=C(O)c1cccc2cccc(-c3cccc4cccc(C(=O)O)c34)c12", "T-47D breast", ">", 100]
]}

====

tested on: HT29 colon; test: NCI tumour cell line growth inhibition, 48 h; in the data active means GI50 below about 0.43 µM; inactive means the rest
Outcomes: 1 = active, 0 = inactive

{"columns": ["Molecule", "Class assignment"],
 "data": [
  ["OCCNc1ncnc2c1ncn2Cc1cccc(COc2cccc(OCc3cccc(Cn4cnc5c(NCCO)ncnc54)c3)c2)c1", 0],
  ["Cc1sc2nc3c4ccccc4c(NCCCN(C)C)nn3c(=O)c2c1C", 0],
  ["CCCOc1ccc2nc(NC(=O)OC)[nH]c2c1", 1],
  ["Cn1c2c(c3ccc(Cl)c(Cl)c31)C(C#N)C1(CCNCC1)NC2=O (stereo not drawn)", 0],
  ["CCOc1cccc(/C=N/NC(=O)C(=O)Nc2cccc(C(F)(F)F)c2)c1O", 0],
  ["COc1ccc(Cn2cc3c(c2)-c2oncc2CC3)cc1", 0],
  ["COc1ccc(-c2ccc(-c3ccc(C(=N)N)cn3)o2)cc1", 0],
  ["COc1ccc2c(c1)/C(=C\\c1c(Cl)[nH]c3ccc(OC)cc13)C(=O)N2", 0],
  ["CN(C)CCCNC(=O)c1ccc2c(c1)oc1cc3ccccc3c(=O)n12", 0],
  ["Cc1nc2sccn2c1-c1csc(Nc2cccc(Cl)c2C)n1", 0],
  ["COc1cc2cc(C(=O)N3C[C@H](CCl)c4c3cc(N)c3ccccc43)[nH]c2c(OC)c1OC", 1],
  ["COC(=O)C1CCc2sc3ncnc(Nc4cn[nH]c4C(=O)Nc4ccc(CN5CCN(C)CC5)cc4)c3c21 (stereo not drawn)", 0],
  ["CNCCn1c(=O)c2cc(OC)c(OC)cc2c2ccc3cc4c(cc3c21)OCO4", 1]
]}

====

system: PC-3 prostate; test: NCI tumour cell line growth inhibition, 48 h; in the data active = GI50 below about 0.43 µM; inactive = the rest
Possible outcomes: 1 (active), -1 (inactive)

{"columns": ["Compound", "Class assignment"],
 "data": [
  ["COc1cc2c(=O)n(CCN)c3c4cc5c(cc4ccc3c2cc1OC)OCO5", -1],
  ["CCc1c(CNc2ccc(C(=O)NC(CC(=O)O)C(=O)O)cc2)ccc2nc(N)nc(N)c12 (stereo not given)", 1],
  ["C=C1C(=O)O[C@H]2[C@H]1CC/C(COC(=O)c1cc3cc(Cl)ccc3[nH]1)=C\\CC[C@@]1(C)O[C@@H]21", -1],
  ["COc1ccc(-c2ccc(-c3ccc(C(=N)N)cn3)o2)cc1", -1],
  ["CNCCn1c(=O)c2cc(OC)c(OC)cc2c2ccc3cc4c(cc3c21)OCO4", 1],
  ["CCn1c(-c2nonc2N)nc2c(C#CC(C)(C)O)nc(OCCNC)cc21", -1],
  ["O=C(O)C1CCCCC1C(=O)O.[NH-]C1CCC1.[NH2-].[Pt+2] (stereo not given)", -1],
  ["NC(=O)c1cc2c3ccccc3ccn2c1-c1ccccc1", 1],
  ["CCC[n+]1cc2cc(OC)c(OC)cc2c2c1-c1cc3c(cc1C2)OCO3", -1],
  ["CCOc1cccc(/C=N/NC(=O)C(=O)Nc2cccc(C(F)(F)F)c2)c1O", -1]
]}

====

tested on: U251 CNS; assay: NCI tumour cell line growth inhibition, 48 h
Recorded TGI for the following molecules
Reported metric: TGI

{"columns": ["Molecule", "Reported metric", "Reported measurement"],
 "data": [
  ["C/C(=N\\N(c1ccccc1)c1ccccc1)c1c(O)cc(C)oc1=O", "TGI", "> 100 µM"],
  ["C[C@]12CCCC(=O)C1(O)C[C@H](C(=O)O)CC2 (stereo partly specified)", "TGI", "> 100 µM"],
  ["CSc1cc(=O)n2c3ccccc3c3ccnc1c32", "TGI", "> 100 µM"],
  ["Cc1nc2sccn2c1-c1csc(Nc2cccc(Cl)c2C)n1", "TGI", "19.6 µM"],
  ["COc1cc(C(=O)Nc2cc3c(cc2Oc2cc(C)cc(C)c2)C(=O)N(C)[C@@H](CC(=O)N(C)O)C(=O)N3)c(Br)c(OC)c1OC", "TGI", "0.00506 µM"],
  ["CC[C@]1(O)C(=O)OCc2c1cc1n(c2=O)Cc2cc3c(N)cccc3nc2-1", "TGI", "> 100 µM"],
  ["COc1ccc(Cn2cc3c(c2)-c2oncc2CC3)cc1", "TGI", "> 92 µM"],
  ["Cc1cc(C)c(C(=O)c2no[n+]([O-])c2C(=O)c2c(C)cc(C)c(Br)c2C)c(C)c1Br", "TGI", "25 µM"],
  ["Cc1sc2nc3c4ccccc4c(NCCCN(C)C)nn3c(=O)c2c1C", "TGI", "20 µM"],
  ["O=C(O)C1CCCCC1C(=O)O.[NH-]C1CCC1.[NH2-].[Pt+2] (stereo unspecified)", "TGI", "> 100 µM"],
  ["Cc1cccc(C)c1NC(=O)C1C(=O)N(c2c(C)cccc2C)C(=O)/C1=N\\NC(N)=S (stereo unspecified)", "TGI", "> 100 µM"]
]}

====

test system: TK-10 renal; test: NCI tumour cell line growth inhibition, 48 h

{"columns": ["Smiles input", "System name", "GI50"],
 "data": [
  ["COc1ccc2cc(-c3c(-c4ccncc4)nc(-c4ccc(S(C)(=O)=O)cc4C)n3C)ccc2c1", "TK-10 renal", "5.82 µM"],
  ["C=C1C(=O)O[C@H]2[C@H]1CC/C(COC(=O)c1cc3cc(Cl)ccc3[nH]1)=C\\CC[C@@]1(C)O[C@@H]21", "TK-10 renal", "1.75 µM"],
  ["CNCCn1c(=O)c2cc(OC)c(OC)cc2c2ccc3cc4c(cc3c21)OCO4", "TK-10 renal", "0.513 µM"],
  ["CCOc1cc(/C=N\\Nc2nnc(C)n2N)c(C)cc1N(CCCl)CCCl", "TK-10 renal", "1.97 µM"],
  ["CN(C)CCCNC(=O)c1ccc2c(c1)oc1cc3ccccc3c(=O)n12", "TK-10 renal", "25.1 µM"],
  ["Cc1cc(S(=O)(=O)NC#N)c(S/C(=N\\Nc2ccc([N+](=O)[O-])cc2)c2ccc(Cl)cc2)cc1Cl", "TK-10 renal", "25 µM"],
  ["Cc1sc2nc3c4ccccc4c(NCCCN(C)C)nn3c(=O)c2c1C", "TK-10 renal", "13.6 µM"],
  ["Cc1[nH]nc(C(=O)n2nc(N)c3ccccc32)c1[N+](=O)[O-]", "TK-10 renal", "> 100 µM"],
  ["COc1cc(-c2n/c(=C\\c3c(O)[nH]c4ccc(Cl)cc34)cc3c2=Nc2ccccc2-3)ccc1F", "TK-10 renal", "2.51 µM"],
  ["COc1ccc(Cn2cc3c(c2)-c2oncc2CC3)cc1", "TK-10 renal", "8.76 µM"],
  ["COc1ccc2[nH]c(O)c(C(=Nc3ccc(N(C)C(=O)CN4CCN(C)CC4)cc3)c3ccccc3)c2c1", "TK-10 renal", "1.99 µM"],
  ["CCn1c(-c2nonc2N)nc2c(C#CC(C)(C)O)nc(OCCNC)cc21", "TK-10 renal", "6.35 µM"],
  ["COc1cc(S(=O)(=O)Nc2ccc(C(=O)/C=C/c3ccc(O)cc3)cc2)ccc1F", "TK-10 renal", "47 µM"]
]}

Where these numbers come from: PubChem BioAssay (NCI)
